All figures here come from paper PMC4312132.

# TARGET: Q2′N ELIC (Dickeya chrysanthemi, UniProt P0C7B7, Q232N)
# ASSAY_REMARKS: GABA activation of Q2′N ELIC, two-electrode voltage clamp in Xenopus oocytes
EXPERIMENTAL_ENDPOINT: pEC50
Interpret pEC50 as the negative base-10 log of the concentration measured in mol/L.

Prompt: Please indicate pEC50 recorded for NCCCC(=O)O [GABA, γ-aminobutyric acid]
Response: 2.74

###

# TARGET: F16′W ELIC (Dickeya chrysanthemi, UniProt P0C7B7, F246W)
# ASSAY_REMARKS: Inhibition of GABA-elicited currents of F16′W ELIC in Xenopus oocytes
EXPERIMENTAL_ENDPOINT: pIC50
A value of pIC50 is the negative decimal logarithm of a concentration given in moles per litre.

Prompt: Assign pIC50 to the following record: `C=C(C)[C@@H]1[C@H]2OC(=O)[C@@H]1[C@]1(O)C[C@H]3O[C@]34C(=O)O[C@H]2[C@]14C`
Response: 4.28
